test system: L1210 leukemia ip in BDF1 mice, survival T/C; test: NCI In Vivo Anticancer Drug Screen. Data for tumor model L1210 Leukemia (intraperitoneal) in B6D2F1 (BDF1) mice; details: endpoint: mean survival time; dose: 50.0 mg/kg/injection; schedule: Q01DX001 (ip); vehicle: carboxymethylcellulose (CMC); higher = longer survival
Inconclusive results and toxic doses are left out.
measured_metric: T/C

# annotated cases, reported T/C shown
Problem: Suppose we examine the compound C=C1C[C@]23C[C@H](O)[C@]4(O)[C@@]5(C)C[C@H](O)C[C@]46C(C2[C@@H]1[C@@H](OC(=O)/C(C)=C/C)[C@@H](OC(=O)/C(C)=C/C)[C@H]36)N(C)C5 (stereo not given in full) ; what T/C value has been reported?
Result: 95 % of control

Problem: Follow-up item: CN(C(=O)c1ccc([N+](=O)[O-])cc1)c1ccccc1
Result: 100 % of control

Problem: Follow-up item: C(=N\c1nncs1)/Nc1nncs1
Result: 102 % of control

Problem: What would you report for CC1([N+](=O)[O-])COP(=O)(NCc2ccccn2)OC1 (stereo not given) ?
Result: 107 % of control

More entries:
Problem: Given CC(=O)Nc1cc(Cl)cc2c1-c1ccc(Cl)cc1C2N(C)C (stereo not given) , state its recorded T/C.
Result: 98 % of control

====

system: L1210 leukemia ip in BDF1 mice, survival T/C; test: NCI In Vivo Anticancer Drug Screen. Data for tumor model L1210 Leukemia (intraperitoneal) in B6D2F1 (BDF1) mice; conditions: endpoint: mean survival time; dose: 400.0 mg/kg/injection; schedule: Q04DX003 (ip); vehicle: saline sonified; higher = longer survival
Toxic doses and inconclusive results are not listed.
The molecules listed here are annotated with their T/C.

Problem: For the molecule O=C1c2ccccc2C(=O)c2c(O)c(Cc3ccccn3)cc(O)c21 , what T/C is on record?
Result: 94 % of control

Further cases:
Problem: Requested read-out: T/C. Entry: COc1cccc(C(=O)O)c1OC
Result: 97 % of control

Problem: Now the molecule CC(=O)O/N=C(/C)c1ccccc1
Result: 100 % of control

Problem: Now the same for CCOC(=O)CC1=NC(C)(C)CC(C)O1 (centres undefined)
Result: 115 % of control

====

test system: L1210 leukemia ip in BDF1 mice, survival T/C; assay: NCI In Vivo Anticancer Drug Screen. Data for tumor model L1210 Leukemia (intraperitoneal) in B6D2F1 (BDF1) mice; conditions: endpoint: mean survival time; dose: 50.0 mg/kg/injection; schedule: Q04DX002 (ip); vehicle: saline with Tween-80; higher = longer survival
Inconclusive results and toxic doses are left out.
measured_metric: T/C

Problem: Quick one: T/C for CCCCN(C=S)CCCC ?
Result: 95 % of control

Problem: Next molecule: COc1ccc(CC2(C#N)c3ccccc3C=CN2C(=O)c2ccccc2)c([N+](=O)[O-])c1OC (centres undefined)
Result: 97 % of control

Problem: Item: CCCCCCCCC(Br)C(Br)CCCCCCCC(=O)O (centres undefined)
Result: 96 % of control

Problem: Now give it for CC1(C)CSCC(C)(C)/C(=N/O)C1=O too.
Result: 101 % of control

====

tested on: L1210 leukemia ip in BDF1 mice, survival T/C; experiment: NCI In Vivo Anticancer Drug Screen. Data for tumor model L1210 Leukemia (intraperitoneal) in B6D2F1 (BDF1) mice; settings: endpoint: mean survival time; dose: 100.0 mg/kg/injection; schedule: Q01DX001 (ip); vehicle: other; higher = longer survival
Inconclusive results and toxic doses are left out.
The following compounds are listed with their measured T/C values.

Problem: // returns reported T/C for input CCCCOC(=O)c1nc[nH]c1[N+](=O)[O-]
Result: 93 % of control

Problem: Moving on to Nc1nc(-c2cccnc2)nc2c1cnn2-c1ccccc1
Result: 100 % of control

Problem: Moving on to the next compound: CC(=O)Nc1ccc2ncccc2c1[N+](=O)[O-]
Result: 102 % of control

Problem: Entry to check: Nc1c(Br)cc(Br)cc1C(=O)O
Result: 97 % of control

Problem: Also COc1ccc2[nH]c3c(C)cc(C=O)c(C)c3c2c1 , if possible.
Result: 101 % of control

Problem: Same for COC(=O)c1cccc2c1-c1ccccc1C2=O
Result: 92 % of control

Problem: Input CN(C)/N=N/c1nc[nH]c1C(=O)NCCc1ccccc1
Result: 108 % of control

Problem: Proceed to CCOC(=O)NC(NC(=O)OCC)c1ccco1
Result: 98 % of control

Turning now to a further record.
Problem: So what's the measured T/C for this one? c1ccc([As](c2ccccc2)c2ccccc2)cc1
Result: 103 % of control
